Reported remaining activity at 1 µM values for a set of compounds
Target: TBK1 (Homo sapiens, UniProt Q9UHD2)
Sequence (Q9UHD2 1-729): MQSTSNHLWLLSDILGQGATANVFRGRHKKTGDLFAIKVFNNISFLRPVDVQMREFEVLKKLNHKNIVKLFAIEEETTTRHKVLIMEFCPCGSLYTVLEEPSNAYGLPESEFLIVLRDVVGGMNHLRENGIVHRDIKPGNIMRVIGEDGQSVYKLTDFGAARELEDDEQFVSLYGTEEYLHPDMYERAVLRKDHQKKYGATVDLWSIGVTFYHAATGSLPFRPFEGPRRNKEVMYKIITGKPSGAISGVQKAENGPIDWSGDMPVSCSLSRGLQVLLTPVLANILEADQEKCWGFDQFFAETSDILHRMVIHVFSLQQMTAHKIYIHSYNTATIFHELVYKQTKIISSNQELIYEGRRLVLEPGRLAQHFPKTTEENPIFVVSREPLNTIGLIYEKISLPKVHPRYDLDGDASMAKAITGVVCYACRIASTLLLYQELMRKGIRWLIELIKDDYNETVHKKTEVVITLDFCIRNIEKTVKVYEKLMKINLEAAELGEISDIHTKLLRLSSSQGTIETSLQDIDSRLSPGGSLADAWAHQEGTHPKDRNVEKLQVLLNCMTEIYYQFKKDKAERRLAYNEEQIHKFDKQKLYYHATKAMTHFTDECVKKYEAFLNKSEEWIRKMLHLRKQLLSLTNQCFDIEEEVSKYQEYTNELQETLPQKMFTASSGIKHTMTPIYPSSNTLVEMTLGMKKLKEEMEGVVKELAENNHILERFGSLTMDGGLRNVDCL
Assay: Kinase profiling (radiometric filter-binding)
Assay type: biochemical
Details: TBK1, 1 µM inhibitor; read-out: Residual activity, %
Note: unit % is implicit; provide only the numeric part.

{"smilesEntry": "N=C(N)NCCC[C@@H](NC(=O)CNC(=O)[C@@H](CCCNC(=N)N)NC(=O)[C@@H](CCCNC(=N)N)NC(=O)Cn1cc(CNCc2nc3c(sc4ccc(Br)cc43)c(=O)[nH]2)nn1)C(=O)N[C@H](CCCCN)C(N)=O", "unitsOfMeasure": "%", "endpointResult": 46}

Here is another compound to look at.
I'd like to know its remaining activity at 1 µM. The compound in question is `N=C(N)NCCC[C@@H](NC(=O)CCCCCNC(=O)Cn1cnc2c(I)c(I)c(I)c(I)c21)C(=O)N[C@H](CCCNC(=N)N)C(=O)N[C@H](CCCNC(=N)N)C(=O)N[C@H](CCCNC(=N)N)C(=O)N[C@H](CCCNC(=N)N)C(=O)N[C@H](CCCNC(=N)N)C(=O)N[C@H](CCCCN)C(N)=O`
68

###

Target: MSK1 (Homo sapiens, UniProt O75582)
Sequence (O75582 whole entry): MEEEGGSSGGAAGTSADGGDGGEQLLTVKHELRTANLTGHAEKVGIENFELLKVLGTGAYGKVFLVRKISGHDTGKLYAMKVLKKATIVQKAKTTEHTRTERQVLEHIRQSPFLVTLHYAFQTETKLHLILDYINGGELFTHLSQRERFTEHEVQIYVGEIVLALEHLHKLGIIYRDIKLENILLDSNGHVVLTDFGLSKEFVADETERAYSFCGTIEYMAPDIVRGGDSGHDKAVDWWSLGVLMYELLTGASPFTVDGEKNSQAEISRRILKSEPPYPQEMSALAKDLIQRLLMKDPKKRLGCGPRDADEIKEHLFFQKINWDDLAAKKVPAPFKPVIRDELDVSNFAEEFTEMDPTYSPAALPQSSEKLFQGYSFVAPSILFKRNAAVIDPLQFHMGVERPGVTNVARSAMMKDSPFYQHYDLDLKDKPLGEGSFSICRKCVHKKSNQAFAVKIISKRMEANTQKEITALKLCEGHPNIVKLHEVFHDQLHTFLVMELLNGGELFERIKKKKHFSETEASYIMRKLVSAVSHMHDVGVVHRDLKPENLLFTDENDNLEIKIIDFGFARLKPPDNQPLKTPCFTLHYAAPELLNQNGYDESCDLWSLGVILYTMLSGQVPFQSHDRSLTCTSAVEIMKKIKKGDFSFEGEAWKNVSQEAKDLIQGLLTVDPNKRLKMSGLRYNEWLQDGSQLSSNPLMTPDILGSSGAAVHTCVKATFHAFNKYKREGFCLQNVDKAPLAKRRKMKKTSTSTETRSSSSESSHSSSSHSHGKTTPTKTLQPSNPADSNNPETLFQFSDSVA
Assay: Kinase profiling (radiometric filter-binding)
Assay type: biochemical
Settings: MSK1, 1 µM inhibitor; read-out: Residual activity, %
Square brackets hold non-standard residues; d marks the D form. Peptide text beside a SMILES is read from it. * marks the point of attachment. X3 = O=C(CCCCCNCc1nc2c(sc3cc(Br)cnc32)c(=O)[nH]1)*
# reported remaining activity at 1 µM; entries follow

Examples with answers:
{"molecule": "N=C(N)NCCC[C@@H](NC(=O)CNC(=O)[C@@H](CCCNC(=N)N)NC(=O)[C@@H](CCCNC(=N)N)NC(=O)CCCCCCCNCc1nc2c(sc3cc(Br)cnc32)c(=O)[nH]1)C(=O)N[C@H](CCCCN)C(N)=O", "remaining activity at 1 µM": "106%"}
{"molecule": "N=C(N)NCCC[C@@H](NC(=O)CNC(=O)[C@@H](CCCNC(=N)N)NC(=O)[C@@H](CCCNC(=N)N)NC(=O)CCCCCCCNCc1nc2c(sc3ccc(Br)cc32)c(=O)[nH]1)C(=O)N[C@H](CCCCN)C(N)=O", "remaining activity at 1 µM": "53%"}

Could you tell me which remaining activity at 1 µM is on file for N=C(N)NCCC[C@@H](NC(=O)CCCCCNCc1nc2c(sc3cc(Br)cnc32)c(=O)[nH]1)C(=O)N[C@H](CCCNC(=N)N)C(=O)N[C@H](CCCNC(=N)N)C(=O)N[C@H](CCCNC(=N)N)C(=O)N[C@H](CCCNC(=N)N)C(=O)N[C@H](CCCNC(=N)N)C(=O)N[C@H](CCCCN)C(N)=O [ARC-3126, BPTP-Ahx-(D-Arg)6-D-Lys-NH2] (X3-[dR][dR][dR][dR][dR][dR][dK]-NH2) ?
29%

Note, next up: `N=C(N)NCCC[C@@H](NC(=O)CCCCCNC(=O)Cn1cnc2c(I)c(I)c(I)c(I)c21)C(=O)N[C@H](CCCNC(=N)N)C(=O)N[C@H](CCCNC(=N)N)C(=O)N[C@H](CCCNC(=N)N)C(=O)N[C@H](CCCNC(=N)N)C(=O)N[C@H](CCCNC(=N)N)C(=O)N[C@H](CCCCN)C(N)=O`
6%

Then `N=C(N)NCCC[C@@H](NC(=O)CNC(=O)[C@@H](CCCNC(=N)N)NC(=O)[C@@H](CCCNC(=N)N)NC(=O)Cn1cc(CNCc2nc3c(sc4ccc(Br)cc43)c(=O)[nH]2)nn1)C(=O)N[C@H](CCCCN)C(N)=O` ?
90%

###

Target: UniProtKB Q9P1W9
Sequence (Q9P1W9 whole entry): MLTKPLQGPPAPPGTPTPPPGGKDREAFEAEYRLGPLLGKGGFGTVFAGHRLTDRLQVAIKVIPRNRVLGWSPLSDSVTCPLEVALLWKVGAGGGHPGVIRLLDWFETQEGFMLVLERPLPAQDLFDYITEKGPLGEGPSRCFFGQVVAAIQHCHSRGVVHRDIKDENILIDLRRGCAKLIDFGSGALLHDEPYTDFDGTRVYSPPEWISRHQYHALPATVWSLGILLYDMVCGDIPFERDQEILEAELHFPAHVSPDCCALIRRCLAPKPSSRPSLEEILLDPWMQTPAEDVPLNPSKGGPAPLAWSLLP
Assay: Binding/displacement assay with FA or TGLI readout
Set-up: made in house
Settings: mean ± SEM, N = 2
metricName: Kd

Requested field: Kd. Item: N=C(N)NCCC[C@@H](N)C(=O)N[C@H](CCCNC(=N)N)C(=O)NCC(=O)N[C@H](CCCNC(=N)N)C(=O)N[C@H](CCCCN)C(N)=O [PIM peptide, (D-Arg)2-Gly-D-Arg-D-Lys-NH2]
> 46000 nM

###

The entries below are paired with their reported remaining activity at 1 µM.
Target: TTK (Homo sapiens)
Sequence (P33981 1-857): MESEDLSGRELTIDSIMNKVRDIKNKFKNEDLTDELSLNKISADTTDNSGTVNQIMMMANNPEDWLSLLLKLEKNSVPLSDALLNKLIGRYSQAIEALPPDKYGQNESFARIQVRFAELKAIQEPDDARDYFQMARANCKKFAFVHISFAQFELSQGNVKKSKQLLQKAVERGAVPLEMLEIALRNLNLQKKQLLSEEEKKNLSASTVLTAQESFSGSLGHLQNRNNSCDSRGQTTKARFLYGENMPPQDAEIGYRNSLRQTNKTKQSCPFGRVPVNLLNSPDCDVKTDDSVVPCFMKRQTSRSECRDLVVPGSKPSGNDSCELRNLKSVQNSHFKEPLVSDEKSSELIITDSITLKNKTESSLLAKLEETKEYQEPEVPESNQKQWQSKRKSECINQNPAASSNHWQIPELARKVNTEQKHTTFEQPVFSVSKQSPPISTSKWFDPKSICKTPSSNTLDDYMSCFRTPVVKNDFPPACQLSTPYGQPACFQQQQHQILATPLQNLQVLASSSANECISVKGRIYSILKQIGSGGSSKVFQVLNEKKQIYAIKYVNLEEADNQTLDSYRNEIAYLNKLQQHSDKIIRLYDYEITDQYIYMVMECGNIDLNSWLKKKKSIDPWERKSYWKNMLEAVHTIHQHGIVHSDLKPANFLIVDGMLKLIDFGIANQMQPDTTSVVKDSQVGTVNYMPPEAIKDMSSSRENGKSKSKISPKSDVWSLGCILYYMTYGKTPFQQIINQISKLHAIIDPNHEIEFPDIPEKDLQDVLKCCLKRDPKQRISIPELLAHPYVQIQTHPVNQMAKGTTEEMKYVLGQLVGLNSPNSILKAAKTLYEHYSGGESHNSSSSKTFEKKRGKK
Experiment: Kinase profiling (radiometric filter-binding)
Type: biochemical
Conditions: 1 µM inhibitor, read-out: Residual activity, %
Square brackets hold non-standard residues; d marks the D form. Peptide text beside a SMILES is read from it. * marks the point of attachment. X3 = O=C(CCCCCNCc1nc2c(sc3cc(Br)cnc32)c(=O)[nH]1)*
Write it as a number; the unit % goes unstated.

Some solved entries appear below for comparison.
{"compound": "N=C(N)NCCC[C@@H](NC(=O)CNC(=O)[C@@H](CCCNC(=N)N)NC(=O)[C@@H](CCCNC(=N)N)NC(=O)CCCCCCCNCc1nc2c(sc3cc(Br)cnc32)c(=O)[nH]1)C(=O)N[C@H](CCCCN)C(N)=O", "remaining activity at 1 µM, %": 113}
{"compound": "N=C(N)NCCC[C@@H](NC(=O)CCCCCNC(=O)Cn1cnc2c(I)c(I)c(I)c(I)c21)C(=O)N[C@H](CCCNC(=N)N)C(=O)N[C@H](CCCNC(=N)N)C(=O)N[C@H](CCCNC(=N)N)C(=O)N[C@H](CCCNC(=N)N)C(=O)N[C@H](CCCNC(=N)N)C(=O)N[C@H](CCCCN)C(N)=O", "remaining activity at 1 µM, %": 45}
{"compound": "N=C(N)NCCC[C@@H](NC(=O)CCCCCNCc1nc2c(sc3cc(Br)cnc32)c(=O)[nH]1)C(=O)N[C@H](CCCNC(=N)N)C(=O)N[C@H](CCCNC(=N)N)C(=O)N[C@H](CCCNC(=N)N)C(=O)N[C@H](CCCNC(=N)N)C(=O)N[C@H](CCCNC(=N)N)C(=O)N[C@H](CCCCN)C(N)=O [ARC-3126, BPTP-Ahx-(D-Arg)6-D-Lys-NH2] (X3-[dR][dR][dR][dR][dR][dR][dK]-NH2)", "remaining activity at 1 µM, %": 110}
{"compound": "N=C(N)NCCC[C@@H](NC(=O)CNC(=O)[C@@H](CCCNC(=N)N)NC(=O)[C@@H](CCCNC(=N)N)NC(=O)Cn1cc(CNCc2nc3c(sc4ccc(Br)cc43)c(=O)[nH]2)nn1)C(=O)N[C@H](CCCCN)C(N)=O", "remaining activity at 1 µM, %": 86}

Param item = `N=C(N)NCCC[C@@H](NC(=O)CNC(=O)[C@@H](CCCNC(=N)N)NC(=O)[C@@H](CCCNC(=N)N)NC(=O)CCCCCCCNCc1nc2c(sc3ccc(Br)cc32)c(=O)[nH]1)C(=O)N[C@H](CCCCN)C(N)=O` ; retrieve measured remaining activity at 1 µM.
94
